- STUDY SYSTEM: T1, heterooligomeric 24-mer Bfr containing ~45% FtnA, isolated from PAO1 cells cultured in 2% O2 (P. aeruginosa PAO1 (endogenous), UniProt Q9HY79 1-158; Q9HWF9 1-154)
- T1 construct: BfrB subunit of P. aeruginosa PAO1, gene PA3531; 18,552 Da; ~55% of the 24 subunits; FtnA subunit of P. aeruginosa PAO1, gene PA4235; 17,940 Da; ~45% of the 24 subunits; 24 subunits in all; a population of molecules of varying composition, on average ~45% FtnA; heme in the BfrB dimers; also called heterooligomeric Bfr; Bfr 45 (2% O2); source: purified from P. aeruginosa PAO1 cultured in 2% O2 (Q …)
- T1 sequence (Q9HY79 whole entry, chain 1 of 2): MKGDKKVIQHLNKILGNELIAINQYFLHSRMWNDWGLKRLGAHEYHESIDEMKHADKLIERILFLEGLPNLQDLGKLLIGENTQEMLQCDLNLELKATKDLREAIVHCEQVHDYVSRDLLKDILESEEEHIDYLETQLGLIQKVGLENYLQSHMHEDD
- T1 sequence (Q9HWF9 whole entry, chain 2 of 2): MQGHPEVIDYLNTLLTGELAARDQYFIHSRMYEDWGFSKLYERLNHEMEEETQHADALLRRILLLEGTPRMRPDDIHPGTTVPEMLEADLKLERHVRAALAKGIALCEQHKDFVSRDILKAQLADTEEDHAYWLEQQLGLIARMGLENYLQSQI
- ASSAY OVERVIEW: SPR; Biacore X100, 25 °C; Bfr or FtnArec immobilised on CM5 chips by amine coupling (100 nM in 10 mM sodium acetate pH 5.0); Bfd 0-40 μM flowed at 5 µL/min in PBS pH 7.4 with 1 mM TCEP; steady-state analysis, steric factor n set to 0.91
- TEST CONTEXT: both partners purified
RECORDED METRIC: pKd
Here pKd is given on a logarithmic scale as minus log10 of the concentration in mol/L.

Q: Reported pKd, binder bacterioferritin-associated ferredoxin (Bfd) (natural protein, P. aeruginosa, UniProt Q9HY80 1-73, looked up, Bfd, the bacterioferritin-associated [2Fe-2S] ferredoxin of P. aeruginosa, product of the bfd gene next to bfrB; Holds a [2Fe-2S] cluster) MYVCLCQGVTDNQIRDAIYEGCCSYREVREATGVGTQCGKCACLAKQVVRETLNDLQSAQPVPAFGTTAFVAA : ____
Result: 5.37
